B1: Caulobacter ParB omega fusion; a variant is named by its letters at X, in order, B8GW30 (parent)
chain: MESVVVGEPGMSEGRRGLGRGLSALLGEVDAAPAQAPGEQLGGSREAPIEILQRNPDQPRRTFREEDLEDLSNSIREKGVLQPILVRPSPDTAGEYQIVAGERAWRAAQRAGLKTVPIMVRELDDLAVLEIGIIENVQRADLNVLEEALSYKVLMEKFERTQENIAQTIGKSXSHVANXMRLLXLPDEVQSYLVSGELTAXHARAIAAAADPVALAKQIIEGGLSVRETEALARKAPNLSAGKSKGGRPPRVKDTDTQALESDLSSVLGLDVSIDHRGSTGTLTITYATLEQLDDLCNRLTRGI

Variants of: B1
Experiment: one-hybrid fitness for binding NBS DNA (the Noc-binding site; scaled: cognate 1, non-cognate 0); higher = stronger binding
Conditions: with NBS DNA site
The full ranking holds about 81,000 sequences; the median of “one-hybrid fitness for binding NBS DNA” is about -0.1, and the highest 2% start at about 0.36. For the sample, the highest values were picked, then their nearest neighbours and some sequences at random.
READOUT_TYPE: one-hybrid fitness for binding NBS DNA

>  <SEQUENCE_CHANGE>
SACG

>  <one-hybrid fitness for binding NBS DNA>
≤ 0.2

$$$$

Returns the measured one-hybrid fitness for binding NBS DNA for the input variant. Input: QKWF
≤ 0.2

Same lookup for QRHG , please.
0.403

Same lookup for REGE , please.
≤ 0.2
